- Tested on: OVCAR-3 ovarian
- procedure-text: NCI tumour cell line growth inhibition, 48 h
Binary classification by TGI, with 40 µM as an inclusive lower bound for yes; all other cases are no.

Reference set, count: 3
| compound | target-under-test | category-label |
| --- | --- | --- |
| COc1ccc(OC)c(-c2nc3sccn3c2/C=C2/C(=O)Nc3ccc(Cl)cc32)c1 | OVCAR-3 ovarian | yes |
| Nc1ccc2c(c1)C(=O)c1ccccc1-2 | OVCAR-3 ovarian | yes |
| CC1=C(C(=O)OCCc2ccc([N+](=O)[O-])cc2)C(c2ccccc2[N+](=O)[O-])C(C(=O)OC(C)C)=C(C)N1 (stereo unspecified) | OVCAR-3 ovarian | yes |

Now, please, on to the next compound.
Check this compound for TGI at or above 40 µM: `O=C1c2[nH]cc(CN3CCNCC3)c2C(=O)c2c1c(O)c1ccccc1c2O`
no

----------
- Tested on: HT29 colon
- procedure-text: NCI tumour cell line growth inhibition, 48 h
Each record here notes measured TGI.
Please give a number only; it is taken to be in µM.

Solved entries (count: 4):
| compound | measured-endpoint | endpoint-result |
| --- | --- | --- |
| COc1ccc(-c2nn(-c3cccc(Cl)c3)cc2C=C(C#N)C#N)cc1 | TGI | 5.56 |
| CCC1C(C)c2c([nH]c3ccccc23)C2C(=O)N(c3ccccc3)C(=O)C21 (stereo unspecified) | TGI | 28.2 |
| O=C(c1ccccc1)c1c(C(F)(F)F)n([O-])c2ccccc2[n+]1=O | TGI | 2.23 |
| O=NC1c2cccc3cccc(c23)C1N=O (stereo unspecified) | TGI | 23.7 |

Look up and report measured TGI (HT29 colon) for the following compound: `c1ccc2c(CNCCCCCCNCc3cccc4ccccc34)cccc2c1`
5.04

----------
- Test system: SF-295 CNS
- procedure-text: NCI tumour cell line growth inhibition, 48 h
Each record here notes measured GI50.

Solved entries (count: 5):
| molecule | target-under-test | GI50 |
| --- | --- | --- |
| Cc1ccc2c(c1)C(=O)c1c-2n(CCCN)c(=O)c2cc([N+](=O)[O-])ccc12 | SF-295 CNS | 120 nM |
| O=C1NC(=O)/C(=C/C=C/c2ccccc2)S1 | SF-295 CNS | 576 nM |
| C=C(CN1CCN(c2ccccc2OC)CC1)c1ccc(C(=O)Nc2ccccc2N)cc1 | SF-295 CNS | 4110 nM |
| C=C(C=O)C1CC(=O)C(C(=O)OC)[C@@H]2O[C@@](C)(CC2=O)C[C@@H]2OC(=O)[C@]3(O[C@@H]23)[C@@H](C(=O)OC)C1 (some centres undefined) | SF-295 CNS | 11200 nM |
| CC(CN=C(CC(=O)c1ccc(Br)cc1)c1ccccc1)N=C(CC(=O)c1ccc(Br)cc1)c1ccccc1 (centres undefined) | SF-295 CNS | 29200 nM |

Look up and report measured GI50 (SF-295 CNS) for the following molecule: `COc1ccc(OC)c(-c2nc3sccn3c2/C=C2/C(=O)Nc3ccc(Cl)cc32)c1`
19400 nM

Look up and report measured GI50 (SF-295 CNS) for the following molecule: COc1cc(C)c(C(=O)O[C@H]2[C@H](O[C@H]3[C@@H](O)COC(O[C@H]4C[C@H]5[C@@H]6CC=C7C[C@@H](O)CC[C@]7(C)[C@H]6CC[C@]5(C)[C@H]4[C@H](C)C(=O)CCC(C)C)[C@@H]3OC(C)=O)OC[C@@H](O)[C@@H]2O)c(C)c1 (some centres undefined)
< 10 nM

Look up and report measured GI50 (SF-295 CNS) for the following molecule: `COc1ccc(-c2ccc(/C=C/C(=O)NO)cc2)cc1`
230 nM

Look up and report measured GI50 (SF-295 CNS) for the following molecule: `O=C1c2[nH]cc(CN3CCNCC3)c2C(=O)c2c1c(O)c1ccccc1c2O`
1740 nM

----------
- Test system: LXFL 529 NSCLC
- procedure-text: NCI tumour cell line growth inhibition, 48 h
Each record here notes measured TGI.

Solved entries (count: 6):
| compound | TGI |
| --- | --- |
| Cc1ccc(C(=O)N(C(C)C)C(C)C)cc1N=NN(C)C | > 100 µM |
| OCC(O)C(O)c1nn(-c2ccccc2)c2nc3cc(Cl)c(Cl)cc3nc12 (stereo not given) | 70.9 µM |
| CCCCCCCCCCCC(=O)OCC1OC(n2cc(F)c(=O)[nH]c2=O)C(NC(=O)OCc2ccccc2)C(O)C1O (stereo not given) | 34.3 µM |
| O=C1c2ccccc2C(=O)c2c(NCCCNCCO)ccc(NCCCNCCO)c21 | 16.1 µM |
| C/C(=N\NC(N)=O)C(CN1CCCCC1)C(c1ccccc1)c1c(O)c2ccccc2oc1=O (stereo not given) | > 100 µM |
| Cc1cnc[nH]c1=O | > 100 µM |

Supply reported TGI belonging to this compound: `COc1cccc(NC(=O)CSc2nnc(-c3ccc(N=Cc4ccc(Cl)cc4)cc3)o2)c1`
50.2 µM

Supply reported TGI belonging to this compound: O=c1[nH]c(=O)n(C2OC(COP(=O)(O)OP(=O)(O)O)C(O)C2O)cc1F (stereo not given)
> 50 µM

----------
- Tested on: KM12 colon
- procedure-text: NCI tumour cell line growth inhibition, 48 h
measured-endpoint: TGI

| molecule | TGI |
| --- | --- |
| O=C(CC(O)(C(F)(F)F)C(F)(F)F)C(CCCl)C(O)(C(F)(F)F)C(F)(F)F (stereo unspecified) | > 100 µM |
| CC[C@@]1(O)C(=O)NCc2c1cc1n(c2=O)Cc2cc3ccccc3nc2-1 | > 100 µM |
| CC(=O)N(CN1C(=O)CCC1C(=O)O)c1ccccc1 (stereo unspecified) | > 100 µM |
| OC1CCCC1C(O)(C(F)(F)F)C(F)(F)F (stereo unspecified) | > 100 µM |
| COc1ccc(C2OC(=O)c3c2ccc2ccccc32)c(C)c1 (stereo unspecified) | > 100 µM |
| Cl.[Pt].[c-]1ccccc1-c1ccccn1.c1ccc(P(c2ccccc2)C([PH+](c2ccccc2)c2ccccc2)[PH+](c2ccccc2)c2ccccc2)cc1 | 7.22 µM |
| C/C(=C\c1ccc(Cl)cc1)C(C)(C)C(=O)O | > 100 µM |
| c1ccc2c(CNCCCCCCNCc3cccc4ccccc34)cccc2c1 | 15.1 µM |

Supply reported TGI belonging to this molecule: `N#Cc1cccc(NC(=O)c2ccc(C(=O)O)c(C(=O)c3ccc(C(=O)O)c(C(=O)Nc4cccc(C#N)c4)c3)c2)c1`
> 100 µM

Supply reported TGI belonging to this molecule: `COc1ccc(/C=C2\Cc3ccccc3C2=O)cc1OC`
> 100 µM

Supply reported TGI belonging to this molecule: CC(NC(=O)/C(=C/c1ccccc1O)NC(=O)c1ccccc1)C(=O)O (stereo unspecified)
> 100 µM

----------
Each record here notes measured log10 of TGI.
- Test system: SNB-19 CNS
- procedure-text: NCI tumour cell line growth inhibition, 48 h
Note the log scale: values are log10 of TGI expressed in µM.

Solved entries (count: 4):
| compound | log10 of TGI |
| --- | --- |
| CCN(CC)CCO/N=C1\CC[C@H]2[C@@H]3CC=C4C[C@@H](O)CC[C@]4(C)[C@H]3CC[C@]12C | 1.99 |
| Cc1c[nH]c2c1C13CC1CN(C(=O)c1cc4cc(NC(=O)c5cc6ccccc6o5)ccc4[nH]1)C3=CC2=O (centres undefined) | -2.32 |
| CC[C@]12C=CCN3CCC4(c5cc(N=Nc6ccccc6)c(OC)cc5N(C)[C@H]4[C@@](O)(C(=O)OC)[C@@H]1OC(C)=O)[C@@H]32 (some centres undefined) | 1.67 |
| COc1ccc(SC2c3cc(OC)c(OC)cc3Oc3nc(N)c(C#N)c(N)c32)cc1 (centres undefined) | 0.42 |

Supply reported log10 of TGI belonging to this compound: `Nc1ccc(-c2nc3ccc4[nH]ncc4c3c3c2CCCC3)cc1F`
1.51

----------
- Test system: M19-MEL melanoma
- procedure-text: NCI tumour cell line growth inhibition, 48 h
Each record here notes measured TGI.

| molecule | TGI |
| --- | --- |
| COc1ccc2cccc(C(=O)c3ccc(C)c4c3CCC4)c2c1 | > 100 µM |
| Cc1c[nH]c2c1C13CC1CN(C(=O)c1cc4cc(NC(=O)c5cc6ccccc6o5)ccc4[nH]1)C3=CC2=O (stereo not drawn) | < 0.001 µM |
| C/C1=C\[C@H](C)C[C@H](C)OC(=O)C[C@H](c2ccc(O)cc2)NC(=O)[C@@H](Cc2c(Br)[nH]c3ccccc23)N(C)C(=O)[C@H](C)NC(=O)[C@@H](C)C1 | 2.02 µM |
| COc1cc([C@@H]2c3cc4c(cc3[C@@H](NC(=O)c3ccc(N)cc3)C3COC(=O)[C@@H]32)OCO4)cc(OC)c1O (stereo partly drawn) | > 100 µM |
| C[Si](C)(C)/C=C/CCC(C=O)(CCCl)c1ccccc1 (stereo not drawn) | > 100 µM |

Supply reported TGI belonging to this molecule: C/C(=N\NC(N)=O)C(CN1CCCCC1)C(c1ccccc1)c1c(O)c2ccccc2oc1=O (stereo not drawn)
> 100 µM

Supply reported TGI belonging to this molecule: O=C(N/N=C(/c1nc2ccc(Cl)cc2[nH]c1=O)C(O)c1ccc(Cl)cc1Cl)c1ccncc1 (stereo not drawn)
> 100 µM

Supply reported TGI belonging to this molecule: `c1ccc2c(CNCCCCCCNCc3cccc4ccccc34)cccc2c1`
14.3 µM

Supply reported TGI belonging to this molecule: `COc1ccc(/C=C2\Cc3ccccc3C2=O)cc1OC`
> 100 µM

Supply reported TGI belonging to this molecule: `CC1=NNC(=NCCN(C)C)C/C1=C/c1ccccc1Cl`
> 100 µM

Supply reported TGI belonging to this molecule: `CC(=O)NS(=O)(=O)c1ccc(NC(=O)COC(=O)c2cccc3c(=O)c4ccccc4[nH]c23)cc1`
> 100 µM

Supply reported TGI belonging to this molecule: COC(=O)C[CH](C(=O)OC)[Ge]([CH3])([CH3])[S]c1ccccc1 (stereo not drawn)
54.7 µM

Supply reported TGI belonging to this molecule: O=c1[nH]c(=O)n(C2OC(COP(=O)(O)OP(=O)(O)O)C(O)C2O)cc1F (stereo not drawn)
> 50 µM

From: PubChem BioAssay (NCI)
